Measured EC50 (nM) direct cellular killing, HL60, listed per entry.
test-system: T1, CLL1 on CLL1-expressing cells (U937, HL60) (human, UniProt Q5QGZ9 1-265)
T1 sequence (looked up): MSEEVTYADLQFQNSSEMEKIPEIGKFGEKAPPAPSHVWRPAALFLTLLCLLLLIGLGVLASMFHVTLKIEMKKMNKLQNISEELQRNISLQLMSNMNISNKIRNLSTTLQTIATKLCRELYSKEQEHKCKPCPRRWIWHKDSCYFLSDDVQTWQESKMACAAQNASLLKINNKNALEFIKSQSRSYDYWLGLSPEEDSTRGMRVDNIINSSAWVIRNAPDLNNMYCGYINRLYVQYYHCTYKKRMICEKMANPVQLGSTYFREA
protocol-notes: cell-based or functional assay
// unit must come after the numeric part

Solved entries:
ADC3-2 (antibody, human IgG1, kappa, V domains shown, conjugator-linker-payload on cysteine thiols after TCEP reduction; positions not given) VH: EVQLVQSGAEVKKPGASVKVSCKASGYSFTDYYMHWVRQAPGQGLEWIGRINPYAGAAFYSQNFKDRVTLTVDTSTSTAYLELSSLRSEDTAVYYCAIERGADLEGYAMDYWGQGTLVTVSS VL: DIQMTQSPSSLSASVGDRVTITCRASQSVSTSSYNYMHWYQQKPGKPPKLLIKYASNLESGVPSRFSGSGSGTDFTLTISSLQPEDFATYYCQHSWEIPLTFGQGTKVEIKR : 8.2 nM
ADC3-3 (antibody, human IgG1, kappa, V domains shown, conjugator-linker-payload on cysteine thiols after TCEP reduction; positions not given) VH: EVQLVQSGAEVKKPGASVKVSCKASGYSFTDYYMHWVRQAPGQGLEWIGRINPYAGAAFYSQNFKDRVTLTVDTSTSTAYLELSSLRSEDTAVYYCAIERGADLEGYAMDYWGQGTLVTVSS VL: DIQMTQSPSSLSASVGDRVTITCRASQSVSTSSYNYMHWYQQKPGKPPKLLIKYASNLESGVPSRFSGSGSGTDFTLTISSLQPEDFATYYCQHSWEIPLTFGQGTKVEIKR : 1.6 nM

We now examine a further binder.
Could you share which EC50 (nM) direct cellular killing, HL60 value was measured for ADC3-4 (antibody, human IgG1, kappa, V domains shown, conjugator-linker-payload on cysteine thiols after TCEP reduction; positions not given) VH: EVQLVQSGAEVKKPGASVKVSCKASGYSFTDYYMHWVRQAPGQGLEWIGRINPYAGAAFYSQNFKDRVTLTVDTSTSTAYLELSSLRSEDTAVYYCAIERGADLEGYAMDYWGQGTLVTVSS VL: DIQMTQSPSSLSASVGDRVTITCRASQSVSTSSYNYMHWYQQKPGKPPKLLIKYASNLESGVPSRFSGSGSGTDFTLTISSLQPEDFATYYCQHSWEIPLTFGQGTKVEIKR ?
1.1 nM
